biological target: T1, human GLP-1 receptor (human, UniProt P43220 24-463); assay: SPA competition vs [125I]-GLP-1, hGLP-1R membranes
T1 construct: whole, on cells; also called hGLP-1R; human glucagon-like peptide-1 receptor
reportedProperty: pKi
Units for pKi: none; it is -log10 of a concentration expressed in mol/L.

{"binder": "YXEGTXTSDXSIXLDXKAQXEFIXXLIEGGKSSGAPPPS (Aib2, αMeF(2F)6, 4Pal10, αMeL13, Orn16, K17(Z1), Aib20, D-Glu24, αMeY25, K31(Z1), C-term NH2; Z1=AEEA2-(γ-Glu)-CO-(CH2)12-CH3)", "pKi": 9.86}

Per the records, this binder ( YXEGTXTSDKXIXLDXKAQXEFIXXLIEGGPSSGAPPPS (Aib2, αMeF(2F)6, K10(Z1), Aib11, αMeL13, Orn16, K17(Z1), Aib20, D-Glu24, αMeY25, C-term NH2; Z1=AEEA2-(γ-Glu)-CO-(CH2)10-CH3) ) has pKi equal to 9.54

Per the records, this binder ( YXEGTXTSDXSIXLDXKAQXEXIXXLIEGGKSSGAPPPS (Aib2, αMeF(2F)6, 4Pal10, αMeL13, Orn16, K17(Z1), Aib20, 1Nal22, D-Glu24, αMeY25, K31(Z1), C-term NH2; Z1=AEEA2-(γ-Glu)-CO-(CH2)12-CO2H) ) has pKi equal to 8.81

Per the records, this binder ( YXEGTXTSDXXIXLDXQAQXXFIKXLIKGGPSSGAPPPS (Aib2, αMeF(2F)6, 4Pal10, Aib11, αMeL13, Orn16, Aib20, Orn21, K24(Z1), αMeY25, K28(Z1), C-term NH2; Z1=AEEA-(γ-Glu)3-CO-(CH2)12-CO2H) ) has pKi equal to 9.52

Per the records, this binder ( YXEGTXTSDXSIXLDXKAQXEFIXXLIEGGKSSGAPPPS (Aib2, αMeF(2F)6, Nle10, αMeL13, Orn16, K17(Z1), Aib20, D-Glu24, αMeY25, K31(Z1), C-term NH2; Z1=AEEA2-(γ-Glu)-CO-(CH2)12-CO2H) ) has pKi equal to 9.06

Per the records, this binder ( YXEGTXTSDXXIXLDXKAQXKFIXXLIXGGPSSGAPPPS (Aib2, αMeF(2F)6, 4Pal10, Aib11, αMeL13, Orn16, K17(Z1), Aib20, K21(Z1), D-Glu24, αMeY25, Orn28, C-term NH2; Z1=AEEA3-(γ-Glu)-CO-(CH2)10-CH3) ) has pKi equal to 9.73

Per the records, this binder ( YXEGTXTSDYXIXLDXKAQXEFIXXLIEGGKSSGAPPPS (Aib2, αMeF(2F)6, αMeS11, αMeL13, Orn16, K17(Z1), Aib20, D-Glu24, αMeY25, K31(Z1), C-term NH2; Z1=AEEA2-(γ-Glu)-CO-(CH2)12-CO2H) ) has pKi equal to 8.92

Per the records, this binder ( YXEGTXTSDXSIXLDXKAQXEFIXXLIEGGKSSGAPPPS (Aib2, αMeF(2F)6, 4Pal10, αMeL13, Orn16, K17(Z1), Aib20, D-Glu24, αMeY25, K31(Z1), C-term NH2; Z1=AEEA2-(γ-Glu)-CO-(CH2)10-CO2H) ) has pKi equal to 8.52

Per the records, this binder ( YXEGTXTSDXSIXLDXKAQXKFIXXLIXGGPSSGAPPPS (Aib2, αMeF(2F)6, 4Pal10, αMeL13, Orn16, K17(Z1), Aib20, K21(Z1), D-Glu24, αMeY25, Orn28, C-term NH2; Z1=AEEA2-(γ-Glu)-CO-(CH2)10-CH3) ) has pKi equal to 9.92

Per the records, this binder ( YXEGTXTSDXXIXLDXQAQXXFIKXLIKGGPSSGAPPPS (Aib2, αMeF(2F)6, 4Pal10, Aib11, αMeL13, Orn16, Aib20, Orn21, K24(Z1), αMeY25, K28(Z1), C-term NH2; Z1=PEG6-(γ-Glu)-(10-(4-carboxyphenoxy)decanoyl)) ) has pKi equal to 10.03

Per the records, this binder ( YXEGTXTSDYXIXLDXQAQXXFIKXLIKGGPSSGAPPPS (Aib2, αMeF(2F)6, Aib11, αMeL13, Orn16, Aib20, Orn21, K24(Z1), αMeY25, K28(Z1), C-term NH2; Z1=AEEA3-(γ-Glu)-CO-(CH2)12-CO2H) ) has pKi equal to 9.61

Per the records, this binder ( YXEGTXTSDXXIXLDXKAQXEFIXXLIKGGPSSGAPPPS (Aib2, αMeF(2F)6, 4Pal10, Aib11, αMeL13, Orn16, K17(Z1), Aib20, D-Glu24, αMeY25, K28(Z1), C-term NH2; Z1=AEEA2-(γ-Glu)-CO-(CH2)10-CH3) ) has pKi equal to 9.49

Per the records, this binder ( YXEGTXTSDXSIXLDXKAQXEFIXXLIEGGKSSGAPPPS (Aib2, αMeF(2F)6, 4Pal10, αMeL13, Orn16, K17(Z1), Aib20, D-Glu24, αMeY25, K31(Z1), C-term NH2; Z1=AEEA2-(10-(4-carboxyphenoxy)decanoyl)) ) has pKi equal to 9.17
